- STUDY TARGET: Opioid receptor delta 1 (Bos taurus, UniProt F1N083)
- Sequence (F1N083 whole entry): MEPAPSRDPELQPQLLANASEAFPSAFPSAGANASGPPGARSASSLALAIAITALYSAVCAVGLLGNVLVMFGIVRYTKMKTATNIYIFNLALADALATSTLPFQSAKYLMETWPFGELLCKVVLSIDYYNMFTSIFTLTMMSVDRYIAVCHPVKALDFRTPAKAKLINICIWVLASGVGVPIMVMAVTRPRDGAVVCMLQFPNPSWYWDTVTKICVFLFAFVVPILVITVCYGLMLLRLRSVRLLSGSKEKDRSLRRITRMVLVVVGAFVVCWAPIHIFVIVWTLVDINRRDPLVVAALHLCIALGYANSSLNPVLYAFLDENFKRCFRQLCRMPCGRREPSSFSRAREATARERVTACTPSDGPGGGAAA
READOUT NAME: Ki (nM)
Use nM as the unit, but write only the number.

What value of measured Ki is listed for CN1CCC23c4c5ccc(O)c4OC2C(O)CCC3C1C5 (stereo unspecified) ? 1000
